Provenance of the data: ChEMBL document CHEMBL2424611

Target: Muscarinic acetylcholine receptor M2 (Homo sapiens)
Sequence (P08172 whole entry): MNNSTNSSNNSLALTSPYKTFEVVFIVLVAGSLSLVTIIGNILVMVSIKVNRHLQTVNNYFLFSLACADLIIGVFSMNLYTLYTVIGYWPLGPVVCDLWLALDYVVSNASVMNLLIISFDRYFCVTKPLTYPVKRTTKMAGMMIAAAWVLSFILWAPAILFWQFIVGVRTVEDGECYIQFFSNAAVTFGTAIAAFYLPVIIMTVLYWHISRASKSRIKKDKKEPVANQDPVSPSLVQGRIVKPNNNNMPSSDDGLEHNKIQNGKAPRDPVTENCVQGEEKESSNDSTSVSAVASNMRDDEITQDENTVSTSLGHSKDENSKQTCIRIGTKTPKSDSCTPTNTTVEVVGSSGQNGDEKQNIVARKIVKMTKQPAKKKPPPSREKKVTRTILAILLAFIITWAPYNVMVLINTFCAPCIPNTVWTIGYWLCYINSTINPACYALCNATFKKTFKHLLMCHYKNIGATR
Assay: Displacement of N-methyl [3H]-scopolamine from recombinant human muscarinic acetylcholine receptor M2 expressed in CHO cells after 2 hrs by liquid scintillation counting
Type: cell-based
pKi: −log10 of the molar value.
Decide using pKi: a value greater than or equal to 6 is 1 (yes), a smaller one is 0 (no).

MOLECULE: COc1ccc(CC(=O)N2CCC3(CC2)CN(C(C)c2ccc(-c4ncccn4)cc2)C3)nc1 (stereo not given)
LABEL_VALUE: 0 (no)
--
MOLECULE: COc1ccc(CC(=O)N2CCC3(CC2)CN([C@@H](c2ccc(-c4ncccn4)cc2)C(C)C)C3)nc1
LABEL_VALUE: 1 (yes)
--
MOLECULE: COc1ccc(CC(=O)N2CCC3(CC2)CN([C@@H](C)c2ccc(-c4ncccn4)cc2)C3)nc1
LABEL_VALUE: 0 (no)

Please indicate if the recorded pKi for COc1ccc(CC(=O)N2CCC3(CC2)CN([C@@H]2CCc4cc(-c5ncccn5)ccc42)C3)nc1 meets or exceeds 6.
0 (no)

---

target: Growth hormone secretagogue receptor type 1 (Homo sapiens, UniProt Q92847); assay: Inverse agonist activity at human GHS-R1a expressed in tetracycline inducible HEK293 cells incubated for 24 hrs prior to europium-labeled GTP addition measured after 90 mins by DELFIA assay; type: cell-based; parameters: concentration or dose not given beside the values
Sequence (Q92847 whole entry): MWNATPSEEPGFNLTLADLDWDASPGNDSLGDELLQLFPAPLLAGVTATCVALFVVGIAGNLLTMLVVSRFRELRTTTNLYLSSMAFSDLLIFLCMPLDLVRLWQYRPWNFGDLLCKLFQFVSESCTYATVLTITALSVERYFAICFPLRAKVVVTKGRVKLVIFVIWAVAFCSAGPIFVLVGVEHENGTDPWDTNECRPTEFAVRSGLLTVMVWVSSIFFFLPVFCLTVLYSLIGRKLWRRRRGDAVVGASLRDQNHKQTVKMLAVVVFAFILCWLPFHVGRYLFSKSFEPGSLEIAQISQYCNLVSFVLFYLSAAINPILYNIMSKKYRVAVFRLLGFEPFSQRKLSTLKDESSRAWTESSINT
# Activity listing for each entry below

Here's what some known entries look like.
MOLECULE: Cc1ccc(CC(=O)N2CCC3(CC2)CN([C@@H]2CCc4cc(-n5nccn5)ccc42)C3)nc1
TARGET_UNDER_TEST: Growth hormone secretagogue receptor type 1 (Homo sapiens, UniProt Q92847)
Activity: 40%
//
MOLECULE: COc1ccc(CC(=O)N2CCC3(CC2)CN([C@@H]2CCc4cc(-c5nccs5)ccc42)C3)nc1
TARGET_UNDER_TEST: Growth hormone secretagogue receptor type 1 (Homo sapiens, UniProt Q92847)
Activity: 39%
//
MOLECULE: COc1ccc(CC(=O)N2CCC3(CC2)CN([C@@H]2CCc4cc(-n5nccn5)ccc42)C3)nc1
TARGET_UNDER_TEST: Growth hormone secretagogue receptor type 1 (Homo sapiens, UniProt Q92847)
Activity: 42%
//
MOLECULE: COc1ccc(CC(=O)N2CCC3(CC2)CN([C@@H]2CCc4cc(-c5ncccn5)ccc42)C3)nc1
TARGET_UNDER_TEST: Growth hormone secretagogue receptor type 1 (Homo sapiens, UniProt Q92847)
Activity: 42%
//
MOLECULE: CCc1ccc(CC(=O)N2CCC3(CC2)CN([C@@H]2CCc4cc(-n5nccn5)ccc42)C3)nc1
TARGET_UNDER_TEST: Growth hormone secretagogue receptor type 1 (Homo sapiens, UniProt Q92847)
Activity: 23%
//
MOLECULE: COc1ccc(CC(=O)N2CCC3(CC2)CN([C@@H]2CCc4cc(-c5ncc(C)cn5)ccc42)C3)nc1
TARGET_UNDER_TEST: Growth hormone secretagogue receptor type 1 (Homo sapiens, UniProt Q92847)
Activity: 40%
//
MOLECULE: Cc1ccc(CC(=O)N2CCC3(CC2)CN([C@@H]2CCc4cc(-c5ncccn5)ccc42)C3)nc1
TARGET_UNDER_TEST: Growth hormone secretagogue receptor type 1 (Homo sapiens, UniProt Q92847)
Activity: 21%
//
MOLECULE: CCc1ccc(CC(=O)N2CCC3(CC2)CN([C@@H]2CCc4cc(-c5ncccn5)ccc42)C3)nc1
TARGET_UNDER_TEST: Growth hormone secretagogue receptor type 1 (Homo sapiens, UniProt Q92847)
Activity: 22%
//
MOLECULE: COc1ccc(CC(=O)N2CCC3(CC2)CN([C@@H]2CCc4cc(-n5nccn5)ccc42)C3)cc1
TARGET_UNDER_TEST: Growth hormone secretagogue receptor type 1 (Homo sapiens, UniProt Q92847)
Activity: 21%

Turning now to a further molecule:
The molecule CCc1cnc(-c2ccc3c(c2)CC[C@H]3N2CC3(CCN(C(=O)Cc4ccc(OC)cn4)CC3)C2)nc1 on Growth hormone secretagogue receptor type 1 (Homo sapiens, UniProt Q92847): Activity was 29%
